Entry source: patent US10757937B2

Target: PYL4 (Arabidopsis thaliana, UniProt O80920)
Construct: 6X-His; made in house; host or cells: E. coli BL21[DE3]pLysS
Sequence (O80920 1-207): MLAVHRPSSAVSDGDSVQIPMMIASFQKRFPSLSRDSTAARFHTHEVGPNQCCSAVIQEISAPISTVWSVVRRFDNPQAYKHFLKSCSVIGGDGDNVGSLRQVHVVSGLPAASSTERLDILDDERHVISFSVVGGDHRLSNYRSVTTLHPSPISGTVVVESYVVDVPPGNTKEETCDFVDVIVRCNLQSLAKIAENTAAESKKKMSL
Sequence (Q9CAJ0 23-511 partner): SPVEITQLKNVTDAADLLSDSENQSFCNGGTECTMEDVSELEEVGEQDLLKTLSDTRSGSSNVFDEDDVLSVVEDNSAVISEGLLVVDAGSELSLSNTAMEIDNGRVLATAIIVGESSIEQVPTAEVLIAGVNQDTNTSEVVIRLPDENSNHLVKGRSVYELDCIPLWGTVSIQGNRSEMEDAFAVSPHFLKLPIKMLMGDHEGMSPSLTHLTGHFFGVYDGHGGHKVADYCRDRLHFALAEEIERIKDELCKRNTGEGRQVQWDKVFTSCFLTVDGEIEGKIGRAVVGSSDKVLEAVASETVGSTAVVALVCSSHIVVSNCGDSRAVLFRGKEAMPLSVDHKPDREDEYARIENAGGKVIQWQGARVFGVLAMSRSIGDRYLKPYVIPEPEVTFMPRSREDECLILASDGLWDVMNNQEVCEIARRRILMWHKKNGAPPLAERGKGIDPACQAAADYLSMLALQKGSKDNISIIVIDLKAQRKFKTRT
Assay: receptor-mediated PP2C (HAB1) inhibition in vitro assay
Format: biochemical
Settings: Table VII; read-out: PP2C Dose Curves PYL4 (IC50)
VALUE_KIND: IC50

## Task Entry CC(C)(C(=O)NS(=O)(=O)Cc1ccc(C#N)cc1)c1cccc(C#N)c1 [Compound 18] : reported IC50 = ?
## Result > 50 µM

## Task Entry N#Cc1ccc(CS(=O)(=O)NC(=O)C2(c3cccc(C#N)c3)CC2)cc1 [Compound 50] : reported IC50 = ?
## Result > 50 µM

## Task Entry N#Cc1ccc(CS(=O)(=O)NC(=O)C2(c3ccc(F)cc3)CCCC2)cc1 [Compound 24] : reported IC50 = ?
## Result > 50 µM

## Task Entry CCC(CC)(C(=O)NS(=O)(=O)Cc1ccc([N+](=O)[O-])cc1)c1ccccc1 [Compound 19] : reported IC50 = ?
## Result > 50 µM
